Target: Pyruvate kinase PKLR (Homo sapiens)
Experiment: Secondary assay for Activators of Human Reticulocyte Pyruvate Kinase
Conditions: purified hPK-R, LDH-coupled NADH fluorescence kinetic; series mostly up to 57.5 µM
Records with an inconclusive call do not appear. Active and inactive are the calls of the source. Calls follow the shape of the dose curve; as a rule, active = well fitted activation curve with a large enough effect; inconclusive = small, poorly fitted or top-dose-only effect, or effect the other way; inactive = flat fitted curve, though single readings scatter.
Labels: active, inactive

{"compound structure string": "Cn1c2ccsc2c2cnn(Cc3ccccc3F)c(=O)c21", "assayed target": "Pyruvate kinase PKLR (Homo sapiens)", "discrete label": "active"}
{"compound structure string": "O=S(=O)(c1ccc2c(c1)OCCO2)N1CCN(S(=O)(=O)c2c(F)ccc(O)c2F)CC1", "assayed target": "Pyruvate kinase PKLR (Homo sapiens)", "discrete label": "inactive"}
{"compound structure string": "Cn1c2cc(C#N)sc2c2cnn(Cc3ccccc3F)c(=O)c21", "assayed target": "Pyruvate kinase PKLR (Homo sapiens)", "discrete label": "inactive"}
{"compound structure string": "O=S(=O)(c1c(F)cccc1F)N1CCN(S(=O)(=O)c2c(F)cccc2F)CC1", "assayed target": "Pyruvate kinase PKLR (Homo sapiens)", "discrete label": "inactive"}
{"compound structure string": "O=S(=O)(c1ccc2c(c1)OCCO2)N1CCN(S(=O)(=O)c2c(F)cccc2F)CC1", "assayed target": "Pyruvate kinase PKLR (Homo sapiens)", "discrete label": "inactive"}
{"compound structure string": "O=S(=O)(c1ccc2ccccc2c1)N1CCN(S(=O)(=O)c2c(F)cccc2F)CC1", "assayed target": "Pyruvate kinase PKLR (Homo sapiens)", "discrete label": "inactive"}

---

Molecular target: Pyruvate kinase PKLR (Homo sapiens) (UniProt P30613)
Sequence (P30613 whole entry, looked up): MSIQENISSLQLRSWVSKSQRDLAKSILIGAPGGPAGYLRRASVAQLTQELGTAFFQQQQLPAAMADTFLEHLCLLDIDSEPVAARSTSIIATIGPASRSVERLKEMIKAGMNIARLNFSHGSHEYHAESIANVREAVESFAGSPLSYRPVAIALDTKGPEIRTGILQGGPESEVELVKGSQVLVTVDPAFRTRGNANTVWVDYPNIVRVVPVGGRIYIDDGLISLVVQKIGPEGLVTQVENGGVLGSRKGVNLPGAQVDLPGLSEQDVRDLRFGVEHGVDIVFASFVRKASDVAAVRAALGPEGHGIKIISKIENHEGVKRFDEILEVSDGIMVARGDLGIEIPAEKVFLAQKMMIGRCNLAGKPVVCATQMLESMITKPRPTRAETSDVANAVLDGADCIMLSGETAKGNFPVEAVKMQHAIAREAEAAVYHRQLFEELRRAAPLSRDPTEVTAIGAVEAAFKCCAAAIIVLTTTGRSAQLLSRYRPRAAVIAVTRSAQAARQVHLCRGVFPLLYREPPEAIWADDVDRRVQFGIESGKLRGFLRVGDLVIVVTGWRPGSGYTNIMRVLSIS
Assay: Secondary assay for Activators of Human Reticulocyte Pyruvate Kinase
Settings: purified hPK-R, LDH-coupled NADH fluorescence kinetic; series mostly up to 57.5 µM
Records with an inconclusive call do not appear. Active and inactive are the calls of the source. Calls follow the shape of the dose curve; as a rule, active = well fitted activation curve with a large enough effect; inconclusive = small, poorly fitted or top-dose-only effect, or effect the other way; inactive = flat fitted curve, though single readings scatter.
Classes used: active, inactive

{"compound structure string": "CC(C)c1cc2c(s1)c1cnn(Cc3ccccc3F)c(=O)c1n2C", "assayed target": "Pyruvate kinase PKLR (Homo sapiens) (UniProt P30613)", "discrete label": "active"}
{"compound structure string": "C[C@@H]1CN(S(=O)(=O)c2ccc3c(c2)OCCO3)CCN1S(=O)(=O)c1c(F)cccc1F", "assayed target": "Pyruvate kinase PKLR (Homo sapiens) (UniProt P30613)", "discrete label": "inactive"}
{"compound structure string": "O=C(c1c(F)cccc1F)N1CCN(S(=O)(=O)c2ccc3c(c2)OCCO3)CC1", "assayed target": "Pyruvate kinase PKLR (Homo sapiens) (UniProt P30613)", "discrete label": "inactive"}
{"compound structure string": "C[C@H]1CN(S(=O)(=O)c2ccc3c(c2)OCCO3)CCN1S(=O)(=O)c1c(F)cccc1F", "assayed target": "Pyruvate kinase PKLR (Homo sapiens) (UniProt P30613)", "discrete label": "inactive"}
{"compound structure string": "CC(=O)c1cc2c(s1)c1cnn(Cc3ccccc3F)c(=O)c1n2C", "assayed target": "Pyruvate kinase PKLR (Homo sapiens) (UniProt P30613)", "discrete label": "active"}
